Value Type: melting point

Please review the following examples before continuing.
C[C@H](NC(=O)c1c(CN2CCN(CCOCCO)C(=O)C2)c(-c2ccccc2)nc2ccc(F)cc12)C1CCCCC1	110 to 112 °C
C[C@H](NC(=O)c1c(CN2CCN(CCCO)CC2)c(-c2ccccc2)nc2ccccc12)C1CCCCC1	168 to 170 °C
CC(NC(=O)c1c(CN2CCN(C[C@H](O)CO)C(=O)C2)c(-c2ccccc2)nc2ccc(F)cc12)C1CCCCC1 (stereo partly drawn)	190 to 192 °C
C[C@H](NC(=O)c1c(CN2CCN(C(=O)NCCO)CC2)c(-c2ccccc2)nc2ccccc12)C1CCCCC1	155 to 157 °C
C[C@H](NC(=O)c1c(CN2CCN(CCOCCO)C(=O)C2)c(-c2ccccc2)nc2ccccc12)C1CCCCC1	125 to 128 °C

Inquiry: Fill in: melting point of `C[C@H](NC(=O)c1c(CN2CCN(CCOCCO)C(=O)C2)c(-c2cccs2)nc2ccccc12)C1CCCCC1` is ___
Reply text: 102 to 104 °C
